inhibition by entry:
Target: COUP transcription factor 2 (Homo sapiens)
Assay: COUP-TFII reporter suppression in human cells – cell-based, luciferase reporter, HEK293T, luminescence, primary screen (AID 686940);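 note: cells cotransfected with COUP-TFII expression vector driving the NGFI-A reporter; 0% = median of COUP-TF2 test wells and 100% = reporter-only cells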
Conditions: HEK293T NGFI-A luciferase reporter, at 8.6 µM, hits give high values
Screen size: about 370,000 compounds; about 2,600 (0.7%) were called active. What follows is part of a selection rich in actives, with near analogues and random picks from the rest.
endpoint: inhibition (%)

                                    molecule                                    system  reading_unit  assay_value
 0  CN(C)Cc1cn(-c2ccc(-c3noc4c3C(=O)N(CC(=O)N3CCOCC3)CC4)cc2)nn1  COUP transcription factor 2 (Homo sapiens)             %         6.87
 1  O=C(Nc1cccc(S(=O)(=O)Nc2ccc(Cl)cc2)c1)c1ccc2c(c1)OCCO2  COUP transcription factor 2 (Homo sapiens)             %         50.8
 2  CN1CCN(c2ccc(NC(=O)c3ccc4c(c3)OCCO4)cc2Cl)CC1  COUP transcription factor 2 (Homo sapiens)             %        -69.1
 3  CCN(CC)C(=O)CC[C@@H]1CC[C@]2(CCCN(S(=O)(=O)C3CCCCC3)C2)O1  COUP transcription factor 2 (Homo sapiens)             %         10.7
 4  C[C@H]1CCC/C=C/C(=O)c2c(O)cc(O)cc2CC(=O)O1  COUP transcription factor 2 (Homo sapiens)             %         38.3
 5  CCOC(=O)[C@]12CCCC=C1N(Cc1ccc(OC)cc1)C(=O)[C@@H]2CC(=O)NCc1cccs1  COUP transcription factor 2 (Homo sapiens)             %         6.16
 6  COc1ccc2c(c1)CN1CN(CCc3ccccc3)S(=O)(=O)CC21 (stereo not given)  COUP transcription factor 2 (Homo sapiens)             %           16
 7  COc1ccc(NC(=O)C2(C)Cc3c(-c4cccc(NC(C)=O)c4)ccnc3O2)cc1OC (stereo not given)  COUP transcription factor 2 (Homo sapiens)             %        -4.02
 8  CC(=O)Nc1ccc(C(=O)Nc2cccc(S(=O)(=O)NC3=NCCC3)c2)cc1  COUP transcription factor 2 (Homo sapiens)             %        -6.18
 9   Cc1ccc(C)c(NC(=O)CCS(=O)(=O)c2ccccc2)c1  COUP transcription factor 2 (Homo sapiens)             %        -5.81
10  COc1ccc(S(=O)(=O)Nc2ccc3oc(C)c(C(C)=O)c3c2)cc1  COUP transcription factor 2 (Homo sapiens)             %         42.4
11  CN(CCc1ccccc1)C(=O)Cn1nc(-c2ccccc2)ccc1=O  COUP transcription factor 2 (Homo sapiens)             %         2.95
12  C=CCN1C(=O)[C@@H](CC(=O)NCCCOCCCC)[C@]2(C(=O)OCC)CCCCC/C=C/12  COUP transcription factor 2 (Homo sapiens)             %        -5.26
13     C=CCOC/C=C/C#CCN(CC=C)Cc1ccc(OC)cc1OC  COUP transcription factor 2 (Homo sapiens)             %        -4.38
14  CC(C)CNc1cccc2c1S(=O)(=O)N(Cc1cn(Cc3ccccc3C(F)(F)F)nn1)Cc1ccccc1O2  COUP transcription factor 2 (Homo sapiens)             %         3.92
15          COc1ccc(C#CCNCc2ccc(OC)cc2OC)cc1  COUP transcription factor 2 (Homo sapiens)             %        -3.51
16  COc1ccc(NC(=O)C2Cc3c(-c4cccc(NC(C)=O)c4)ccnc3O2)cc1OC (stereo not given)  COUP transcription factor 2 (Homo sapiens)             %           45
17  Cc1nc(CNc2ncnc3ccc(-c4ccc5c(c4)OCO5)cc23)cs1  COUP transcription factor 2 (Homo sapiens)             %         10.5
18  COc1ccc(C(=O)OCCN2CCN(C3CN(Cc4cn(Cc5ccccc5F)nn4)S(=O)(=O)C3)CC2)cc1OC (stereo not given)  COUP transcription factor 2 (Homo sapiens)             %         18.4
19  COc1ccc(OC)c(NC(=O)c2cc(-c3cc(F)ccc3OCC3CCCO3)n[nH]2)c1 (stereo not given)  COUP transcription factor 2 (Homo sapiens)             %           87
